# assay-details: soluble on expression in E. coli; label from the status in PepcDB or PDB records
parameter: soluble on expression in E. coli

1) MGSDKIHHHHHHMDIKLKDFEGPLDLLLHLVSKYQVDIYEVPITEVIEQYLAYIATLQAMRLEVAGEYMLMASQLMVIKSRRLLPKVVEQIDPEDDPEMDLLDQLEEYRKFKLLSEKLGEQHDERANYFSKPKLDLIYDDVQLAKDKTIIDIFLAFSKVMAEKQASLRQSHATIARDEYKIEDMMDFVRSRFETGPRLELRQLFQESQDVNEMITIFLATLELVKVHEIVLEQTETFGDIYLVRSEDESLS	not soluble
2) MIIILRYNKQVFYKYKGDSVMRNRTSVMRKRQMQEVTAKRTKLGKIAMTQKLEATEKQFIVTQGQPCQTQLAEGKFLSYQYNDQIFVHGGRCIELVDSNIVSTAHASLLITILLEGKLSFGYDDLQFDLDASDTPQGVVVNLIHPANFRRSLIENNQINKINILVKPQWLEYRSEESCCSTAFFETHQAFYHLELNQALTELATELTNRDTPHRFQDKLEIESLIYQILFHATQQMPQDFCPQNTNSYRDK	not soluble
